human cloned 5-HT6 receptors (Homo sapiens, UniProt P50406) data, read-out log10 Ki
Sequence (P50406 whole entry): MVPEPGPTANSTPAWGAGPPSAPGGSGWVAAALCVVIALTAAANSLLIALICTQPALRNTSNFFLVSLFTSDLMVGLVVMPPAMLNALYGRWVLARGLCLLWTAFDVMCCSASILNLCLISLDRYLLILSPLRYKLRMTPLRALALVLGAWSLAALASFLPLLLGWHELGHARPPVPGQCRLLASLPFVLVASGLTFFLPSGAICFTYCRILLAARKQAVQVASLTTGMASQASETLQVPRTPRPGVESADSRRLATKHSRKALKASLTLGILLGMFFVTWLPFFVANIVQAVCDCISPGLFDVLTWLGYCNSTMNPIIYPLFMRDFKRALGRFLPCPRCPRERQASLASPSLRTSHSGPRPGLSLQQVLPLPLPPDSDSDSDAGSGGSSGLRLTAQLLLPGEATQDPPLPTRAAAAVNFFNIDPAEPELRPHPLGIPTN
Could you please treat all values as log10 of Ki in nM?

>>> reading("NCCn1c(=O)n(S(=O)(=O)c2ccc(Cl)s2)c2ccccc21 [Example 17]")
1.41
>>> reading("O=c1n(C2CCNCC2)c2ccccc2n1S(=O)(=O)c1ccc2ccccc2c1 [Example 22]")
1.30
>>> reading("O=c1n(C2=CCNCC2)c2ccccc2n1S(=O)(=O)c1cc(Cl)c(Cl)s1 [Example 42]")
1.18
>>> reading("O=c1n(C2CCNCC2)c2ccccc2n1S(=O)(=O)c1cc(Br)c(Cl)s1 [Example 29]")
1.30
>>> reading("O=c1n(C2=CCNCC2)c2ccccc2n1S(=O)(=O)c1cc(Br)c(Cl)s1 [Example 46]")
0.95
>>> reading("O=c1n(C2CCNCC2)c2ccccc2n1S(=O)(=O)c1c(Cl)sc(Cl)c1Br [Example 30]")
1.62
>>> reading("Cc1c(S(=O)(=O)n2c(=O)n(C3=CCNCC3)c3ccccc32)sc2ccc(Cl)cc12 [Example 48]")
1.69
>>> reading("O=c1n(C2CCNCC2)c2ccccc2n1S(=O)(=O)c1cc(Cl)c(Cl)s1 [Example 25]")
1.51

The record that follows has no log10 Ki shown yet.
Req: Could you please provide reported log10 Ki for O=c1n(C2=CCNCC2)c2ccccc2n1S(=O)(=O)c1c(Cl)nc2sccn12 [Example 49] ? Thanks!
Resp: 0.30

src = patent US7544701B2
